The reported measurements were obtained from ChEMBL document CHEMBL4689842.

- Test system: U2OS
- experiment.summary: Multiplex assay against U2OS
- Type: toxicity, cell-based
- stated.conditions: human, 24 h, 1 µM, compound concentration 1 uM, replicate 2
parameter.measured: Population Fragmented Nuclei (%)
Provide the reading as a plain figure in %.

Known results for compounds:
NC(=O)c1cccc(-c2cc(Nc3ccc(OC(F)(F)F)cc3)ncn2)c1 = 8
O=C(Cc1ccc(-c2ccc(OCCN3CCOCC3)cc2)cn1)NCc1ccccc1 = 16
COc1cccc2cc(-c3nc([C@H]4CC[C@H](C(=O)O)CC4)n4ncnc(N)c34)[nH]c12 = 13
Cc1ccc(C(=O)Nc2cccc(C(F)(F)F)c2)cc1Nc1nc(-c2cccnc2)nc2c1cnn2C = 12
CCn1c(=O)c(-c2ccc(-c3cncs3)cc2Cl)cc2cnc(Nc3ccc(N4CCN(C)CC4)cc3)nc21 = 15
O=C(Nc1ccc(Cl)cc1)Nc1cccc(-c2cccc(N3CCCC3)n2)c1 = 18
Cl.O=c1c2cccn2c2ccccc2n1CCCN1CCC(c2ccc(Cl)cc2)CC1 = 16
Cl.Oc1ccc2c3c1O[C@H]1c4[nH]c5c(c4C[C@@]4(O)[C@@H](C2)N(CC2CC2)CC[C@]314)C[C@@]1(O)[C@H]2Cc3ccc(O)c4c3[C@@]1(CCN2CC1CC1)[C@H]5O4 = 3

What Population Fragmented Nuclei (%) value was documented for this compound, `CCc1cccc(CC)c1NC(=O)c1nn(C)c2c1CCc1cnc(Nc3ccc(C(=O)NC4CCN(C)CC4)cc3OC(F)(F)F)nc1-2` ? 7

What about this compound? `COc1ccc(-c2ccc3c(N4CCOCC4)nc(N4C[C@@H](C)O[C@@H](C)C4)nc3n2)cc1CO` 10

What about this compound? `O=C1NC(=O)C(c2cnc3ccccn23)=C1c1cn2c3c(cc(F)cc13)CN(C(=O)N1CCCCC1)CC2` 4

What about this compound? `COc1ccc(S(=O)(=O)N(CCO)c2ccccc2CN(C)C/C=C/c2ccc(Cl)cc2)cc1.O=P(O)(O)O` 16

What about this compound? `Cc1ccc2nc(NCCN)c3ncc(C)n3c2c1.O=C(O)C(F)(F)F.O=C(O)C(F)(F)F` 6

What about this compound? CN1CCC(=C2c3ccccc3CC(=O)c3sccc32)CC1.O=C(O)/C=C/C(=O)O [KETOTIFEN FUMARATE] 8

What about this compound? `COc1cc(N2CCN(C)CC2)ccc1Nc1ncc2c(n1)N(C)c1ccccc1C(=O)N2C` 9

What about this compound? `CNC(=O)c1ccc(Nc2nc(OC3CCCC3)c3c(-c4ccc5nc(C)oc5c4)c[nH]c3n2)c(OC)c1` 25

----------
- Test system: U2OS
- experiment.summary: Multiplex assay against U2OS
- Format: toxicity, cell-based
- stated.conditions: human, 12 h, 1 µM, compound concentration 1 uM, replicate 2
molecules and their reported Population Fragmented Nuclei (%)
Provide the reading as a plain figure in %.

Known results for molecules:
CN1CCC(=C2c3ccccc3CC(=O)c3sccc32)CC1.O=C(O)/C=C/C(=O)O [KETOTIFEN FUMARATE] = 6
COC(=N)c1nc2ccc3ncnc(Nc4ccc(OC)cc4F)c3c2s1 = 10

Okay, next one:
What Population Fragmented Nuclei (%) value was documented for this molecule, COc1cccc2cc(-c3nc([C@H]4CC[C@H](C(=O)O)CC4)n4ncnc(N)c34)[nH]c12 [OSI-027] ? 18

----------
compounds and their reported Population Pyknosed Nuclei (%)
- Tested on: HEK-293T
- experiment.summary: Multiplex assay against HEK293T
- Format: toxicity, cell-based
- stated.conditions: human, 24 h, 1 µM, compound concentration 1 uM, replicate 2
Provide the reading as a plain figure in %.

CCCn1c(=O)c2[nH]c(-c3cnn(Cc4cccc(C(F)(F)F)c4)c3)nc2n(CC)c1=O = 29
O=C(Nc1ccc(-n2nc(-c3cccnc3)cc2C(F)(F)F)cn1)c1ccc(-c2ccccc2)c(F)c1 = 19
COc1ccc(S(=O)(=O)N(CCO)c2ccccc2CN(C)C/C=C/c2ccc(Cl)cc2)cc1.O=P(O)(O)O = 38
O=C1N/C(=N/c2ccccc2F)S/C1=C\c1ccc(C(=O)O)cc1 = 36
Cc1cn(-c2cc(NC(=O)c3ccc(C)c(Nc4nccc(-c5cccnc5)n4)c3)cc(C(F)(F)F)c2)cn1 = 35
CCN1CCN(Cc2ccc(Nc3ncc(F)c(-c4cc(F)c5nc(C)n(C(C)C)c5c4)n3)nc2)CC1.CS(=O)(=O)O = 48
CCc1cccc(CC)c1NC(=O)c1nn(C)c2c1CCc1cnc(Nc3ccc(N4CCN(C)CC4)cc3OC)nc1-2 = 68
COc1cc(N2CCN(C)CC2)ccc1Nc1ncc2c(n1)N(C)c1ccccc1C(=O)N2C = 45
Cl.O=c1c2cccn2c2ccccc2n1CCCN1CCC(c2ccc(Cl)cc2)CC1 = 38
NC(=O)c1cccc(-c2cc(Nc3ccc(OC(F)(F)F)cc3)ncn2)c1 = 2

What Population Pyknosed Nuclei (%) value was documented for this compound, `Cl.O=C(c1ccc(Nc2nccc(-c3cc4ccccc4s3)n2)cc1)N1CCC(N2CCCC2)CC1` ? 2

What about this compound? CCOC(=O)c1c(C)[nH]c2ccc3c(c12)CN1CCc2cc(OC)ccc2C1O3 (configuration not stated) 51

What about this compound? `CNc1cc(Oc2cc(C(=O)Nc3cc(N4CCN(C)CC4)cc(C(F)(F)F)c3)ccc2C)ncn1` 51

What about this compound? `COc1cccc2cc(-c3nc([C@H]4CC[C@H](C(=O)O)CC4)n4ncnc(N)c34)[nH]c12` 8

What about this compound? `Cc1cc(C)c(S(=O)(=O)N(Cc2ccc(-c3cccc(S(C)(=O)=O)c3)cc2)Cc2ccc(C(F)(F)F)o2)c(C)c1` 29

What about this compound? `CCNc1cc(N[C@H]2CC[C@H](O)CC2)nc(Nc2ccc3c(ccn3Cc3ccccc3)c2)n1` 4

What about this compound? `O=C(Nc1cccnn1)N1CCC(=Cc2cccc(Oc3ccc(C(F)(F)F)cn3)c2)CC1` 10
